# pIC50 values compiled below
Target: T1, IL23R_huFC (human, UniProt Q5VWK5 24-353)
T1 sequence (looked up): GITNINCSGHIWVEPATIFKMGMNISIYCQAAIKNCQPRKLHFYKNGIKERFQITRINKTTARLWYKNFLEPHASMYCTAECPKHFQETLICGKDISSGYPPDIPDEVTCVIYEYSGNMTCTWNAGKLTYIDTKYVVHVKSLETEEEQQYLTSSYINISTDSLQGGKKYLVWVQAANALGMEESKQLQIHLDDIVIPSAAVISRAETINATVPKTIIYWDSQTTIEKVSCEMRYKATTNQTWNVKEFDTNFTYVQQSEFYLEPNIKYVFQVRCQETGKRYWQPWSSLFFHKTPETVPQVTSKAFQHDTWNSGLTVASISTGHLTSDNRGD
Assay: human ELISA vs IL-23
pIC50: −log10 of the molar value. Bridges are numbered along the chain shown (N, C = ends). [ ]: non-standard residue; d: D form. 2Nal = N[C@@H](Cc1ccc2ccccc2c1)C(=O)O; AEF = NCCOc1ccc(C[C@H](N)C(=O)O)cc1; hArg = N=C(N)NCCCC[C@H](N)C(=O)O; hLeu = CC(C)CC[C@H](N)C(=O)O; αMeK = C[C@](N)(CCCCN)C(=O)O; Abu = CC[C@H](N)C(=O)O; Aib = CC(C)(N)C(=O)O
measurement.name: pIC50

>>> reported_measurement("Ac-[Abu]QTWQC[AEF][2Nal][αMeK]ENQ-NH2 (thioether 1-6) [Ac-Cyclo-[[Abu]-QTWQC]-[Phe[4-(2-aminoethoxy)]]-[2-Nal]-[α-MeLys]-ENQ-NH2]")
"> 8.00"
>>> reported_measurement("Ac-[Abu]QTWQC[AEF][2Nal][Aib]QNG-NH2 (thioether 1-6) [Ac-Cyclo-[[Abu]-QTWQC]-[Phe[4-(2-aminoethoxy)]]-[2-Nal]-[Aib]-QNG-NH2]")
"> 8.00"
>>> reported_measurement("Ac-[Abu]QTWQ[dC]YW[hLeu]ENG-NH2 (thioether 1-6) [Ac-Cyclo-[Abu]-QTWQ-(D)Cys]]-YW-[hLeu]-ENG-NH2]")
"< 6.00"
>>> reported_measurement("Ac-[Abu]QTWQC[AEF][2Nal][αMeK][hArg]NG-NH2 (thioether 1-6) [Ac-Cyclo-[[Abu]-QTWQC]-[Phe[4-(2-aminoethoxy)]]-2-Nal]-[α-MeLys]-hRNG-NH2]")
"> 8.00"
>>> reported_measurement("Ac-[Abu]QTWQC[AEF][2Nal][αMeK]DNG-NH2 (thioether 1-6) [Ac-Cyclo-[[Abu]-QTWQC]-[Phe[4-(2-aminoethoxy)]]-[2-Nal][α-MeLys]-DNG-NH2]")
"> 8.00"
